Overview of recorded bioavailability for various compounds
test: Oral bioavailability in rat; format: ADME, organism-based; conditions: in vivo
Provide only the numeric value, understood in %.

Lookup: Output bioavailability of C#CCOc1ccc2c(c1)c(-c1ccc(C(C)C)cc1)nc(=O)n2Cc1cccc(NC(=O)CN2CCN(C)CC2)c1
Found: 1

Lookup: Let me know recorded bioavailability for C#CCOc1ccc2c(c1)c(-c1ccc(C(C)C)cc1)nc(=O)n2Cc1cccc(NC(=O)CN2CCN(CCOC)CC2)c1 , thanks.
Found: 1

Lookup: Let me know recorded bioavailability for C#CCOc1ccc2c(c1)c(-c1ccc(C(C)C)cc1)nc(=O)n2Cc1cccc(NC(=O)CN2CCN(CCCN(C)C)CC2)c1 , thanks.
Found: 8

Lookup: Name the recorded bioavailability of the compound listed here: C#CCOc1ccc2c(c1)c(-c1ccc(C(C)C)cc1)nc(=O)n2C(C)C
Found: 20
